pEC50: −log10 of the molar value.
The following are reported pEC50 results, target or system ccT2R200-1 (Cyprinus carpio, UniProt A0A2Z6FB23).
READOUT: pEC50

• C=C1CC[C@@H]2[C@](C)(CO)[C@H](O)CC[C@@]2(C)[C@@H]1C/C=C1/C(=O)OC[C@H]1O [andrographolide] = 3.74
• C=C(C)[C@@H]1[C@H]2OC(=O)[C@@H]1[C@]1(O)C[C@H]3O[C@]34C(=O)O[C@H]2[C@]14C = 3.29

---

Tested on: ccT2R203-1
Assay type: cell-based, common carp (Cyprinus carpio)
Settings: single screening concentration per compound, vs control buffer
READOUT: response of ccT2R203-1 in screening of bitter compounds

* C=C(C)[C@@H]1[C@H]2OC(=O)[C@@H]1[C@]1(O)C[C@H]3O[C@]34C(=O)O[C@H]2[C@]14C | strongly activated
* CCCc1cc(=O)[nH]c(=S)[nH]1 | strongly activated
* CC1=C[C@H]2[C@H]3[C@H](C(C)=C4[C@H]5OC(=O)[C@@H](C)[C@@H]5CC[C@](C)(O)[C@@H]43)[C@@]13[C@@H]2[C@@](C)(O)CC[C@H]1[C@H](C)C(=O)O[C@@H]13 | weakly responded
* CNC(N)=S | weakly responded
* CN(C)C=S [dimethyl-thioformamide] | weakly responded
* C=C1CC[C@@H]2[C@](C)(CO)[C@H](O)CC[C@@]2(C)[C@@H]1C/C=C1/C(=O)OC[C@H]1O [andrographolide] | weakly responded

---

Biological target: ccT2R200-2 (Cyprinus carpio, UniProt A0A2Z6FB19)
Sequence (A0A2Z6FB19 1-321): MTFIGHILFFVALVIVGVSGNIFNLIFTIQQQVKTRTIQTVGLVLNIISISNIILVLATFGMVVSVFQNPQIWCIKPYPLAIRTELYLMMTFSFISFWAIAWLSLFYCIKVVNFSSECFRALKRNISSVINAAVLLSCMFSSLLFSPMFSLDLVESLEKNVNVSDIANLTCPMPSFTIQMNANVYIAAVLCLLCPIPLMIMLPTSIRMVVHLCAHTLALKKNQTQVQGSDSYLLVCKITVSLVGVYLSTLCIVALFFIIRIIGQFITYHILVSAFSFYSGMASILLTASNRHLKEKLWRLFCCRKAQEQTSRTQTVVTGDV
Assay type: cell-based, common carp (Cyprinus carpio)
Conditions: single screening concentration per compound, vs control buffer
READOUT: response of ccT2R200-2 in screening of bitter compounds

• CCCc1cc(=O)[nH]c(=S)[nH]1 [PROP] = strongly activated
• C=C1CC[C@@H]2[C@](C)(CO)[C@H](O)CC[C@@]2(C)[C@@H]1C/C=C1/C(=O)OC[C@H]1O [andrographolide] = strongly activated
• C=C(C)[C@@H]1[C@H]2OC(=O)[C@@H]1[C@]1(O)C[C@H]3O[C@]34C(=O)O[C@H]2[C@]14C [picrotoxinin] = strongly activated

---

Test system: ccT2R203-1
Assay type: cell-based, common carp (Cyprinus carpio)
Conditions: ccT2R203-1, dose-response with seven concentrations, HEK293T, luminescence AUC
READOUT: EC50 (µM)

• C=C(C)[C@@H]1[C@H]2OC(=O)[C@@H]1[C@]1(O)C[C@H]3O[C@]34C(=O)O[C@H]2[C@]14C = 425

---

Molecular target: UniProtKB A0A2Z6FB59
Sequence (A0A2Z6FB59 1-327): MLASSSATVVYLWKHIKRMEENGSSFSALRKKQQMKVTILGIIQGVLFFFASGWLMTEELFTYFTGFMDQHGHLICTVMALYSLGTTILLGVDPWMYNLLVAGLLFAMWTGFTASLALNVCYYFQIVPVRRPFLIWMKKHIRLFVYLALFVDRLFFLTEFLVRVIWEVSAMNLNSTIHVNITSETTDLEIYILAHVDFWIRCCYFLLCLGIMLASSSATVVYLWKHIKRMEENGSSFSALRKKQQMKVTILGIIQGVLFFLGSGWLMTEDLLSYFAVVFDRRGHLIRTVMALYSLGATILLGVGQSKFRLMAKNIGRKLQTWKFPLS
pEC50: −log10 of the molar value.
READOUT: pEC50

* CC[N+](CC)(CC(=O)Nc1c(C)cccc1C)Cc1ccccc1 [denatonium benzoate] | 4.36

---

Target: ccT2R200-2 (Cyprinus carpio)
READOUT: EC50 (µM)

* C=C1CC[C@@H]2[C@](C)(CO)[C@H](O)CC[C@@]2(C)[C@@H]1C/C=C1/C(=O)OC[C@H]1O [andrographolide] | 335

---

Target: ccT2R200-1 (Cyprinus carpio)
Sequence (A0A2Z6FB23 1-321): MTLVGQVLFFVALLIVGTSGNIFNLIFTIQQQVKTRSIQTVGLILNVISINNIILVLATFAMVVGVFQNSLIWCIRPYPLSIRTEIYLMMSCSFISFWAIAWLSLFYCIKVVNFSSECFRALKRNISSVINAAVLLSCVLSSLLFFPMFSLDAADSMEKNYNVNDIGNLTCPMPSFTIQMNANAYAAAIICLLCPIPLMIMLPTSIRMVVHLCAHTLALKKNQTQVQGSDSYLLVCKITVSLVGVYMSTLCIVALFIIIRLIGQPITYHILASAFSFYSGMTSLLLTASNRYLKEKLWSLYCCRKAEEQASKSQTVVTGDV
Assay type: cell-based, common carp (Cyprinus carpio)
Settings: single screening concentration per compound, vs control buffer
READOUT: response of ccT2R200-1 in screening of bitter compounds

* CC1=C[C@H]2[C@H]3[C@H](C(C)=C4[C@H]5OC(=O)[C@@H](C)[C@@H]5CC[C@](C)(O)[C@@H]43)[C@@]13[C@@H]2[C@@](C)(O)CC[C@H]1[C@H](C)C(=O)O[C@@H]13 [absinthin] | weakly responded
* C=C(C)[C@@H]1[C@H]2OC(=O)[C@@H]1[C@]1(O)C[C@H]3O[C@]34C(=O)O[C@H]2[C@]14C [picrotoxinin] | strongly activated
* C=C1CC[C@@H]2[C@](C)(CO)[C@H](O)CC[C@@]2(C)[C@@H]1C/C=C1/C(=O)OC[C@H]1O [andrographolide] | strongly activated
* CN(C)C=S [dimethyl-thioformamide] | weakly responded
* O=C1C[C@@H]2OCC=C3CN4CC[C@]56c7ccccc7N1[C@H]5[C@H]2[C@H]3C[C@H]46 [strychinine] | weakly responded
* CC(C)[C@]12CC(=O)[C@H](C)[C@H]1C2 [α-thujon] | weakly responded
* CCCc1cc(=O)[nH]c(=S)[nH]1 [PROP] | weakly responded
* O=C(O)c1cc(=O)c2c(OCC(O)COc3cccc4oc(C(=O)O)cc(=O)c34)cccc2o1 [cromolyne] | weakly responded

Data provenance: paper PMC8416640
